assay: modified MTT cytotoxicity assay; conditions: human
Result type: IC80 at 72 h (µg/mL)
Output spec: scalar in µg/mL, unitless text.

Query: For CC(C)c1cccc(=O)c(O)c1 [β-thujaplicin] , what is its reported IC80 at 72 h?
Response: 215

###

Assay: modified MTT cytotoxicity assay
Details: human, MRC-5 normal lung fibroblast cells
Procedure: Lung fibroblast cell line MRC-5, obtained from ATCC, was propagated in Eagle’s Minimum Essential Medium (EMEM) supplemented with 10% fetal bovine serum (FBS), 2 mM glutamine, 10 µL/mL non-essential amino acids, and 1% penicillin–streptomycin solution (10,000 units/mL of penicillin and 10 mg/mL of streptomycin); all these components were purchased from Sigma-Aldrich. […]
Result type: IC80 at 72 h (µg/mL)
Output spec: scalar in µg/mL, unitless text.

Query: For CC1=CC(=O)C(C(C)C)=CC1=O , what is its reported IC80 at 72 h?
Response: 15

Values from paper PMC8305236
